Tested on: PRMT1 (protein arginine N-methyltransferase 1)
Assay: small molecules binding arginine methyltransferase PRMT1 – biochemical, small-molecule microarray, 635 nm fluorescence, primary screen (AID 1088);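 also: binding of Prmt1 protein to compounds spotted on small-molecule microarray slides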
Details: higher = more signal
measurement label: composite z-score
Give the value as a plain number.

Write down composite z-score measured for item CC(C)N1C(=O)c2ccccc2[C@](C)(C(=O)NC2CC2)[C@@H]1c1ccc(CO)cc1
1.49

Using known records, supply composite z-score for O=C1OCCC/C=C\[C@H]2OC34C=CCN(Cn5nnc6ccccc65)C(=O)[C@H]3N(CCCO)C(=O)[C@@H]4C12 (stereo partly drawn)
1.19

Supply recorded composite z-score for CCOC(=O)C1=C[C@@H](C(C)(C)C)N(S(=O)(=O)c2ccc(C)cc2)[C@H]1c1ccc(Cl)c(Cl)c1 here.
1.46
